B1: glmS ribozyme (parent)
chain: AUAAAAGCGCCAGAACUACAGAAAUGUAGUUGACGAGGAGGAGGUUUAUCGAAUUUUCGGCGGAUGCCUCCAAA

Variants of: B1
Assay: kcat; higher = faster cleavage; RNA array
Details: with glucosamine-6-phosphate
Fewer inactive variants are shown than the library holds.
Answer rule not met if kcat is under 0.0001 s⁻¹, and rule met if it is 0.0001 s⁻¹ or more.

Study these solved cases before continuing.
AUAAAAGCGCUAGAACUACAGAAAUGUAGUUGACGAGGAGGAGGUUUAUCGAAUUUUCGGCGGAUGGCUCCAAA: rule met
AUAAAAGCGACAGAACUACAGAAAUGUAGUUGACGAGGAGGAGGUUUAUCGAAUGUUCGGCGGAUGCCUCCAAA: rule not met
AUAAAAGCGCCAGAACUACAGAAAUGUAGUUGACGAGGAGGAGGUUUAUUGAAUUUUCGGAGGAUGCUUCCAAA: rule not met
AUAAAAGCGCCAGAACUACAGAAAUGUAGUUGACGAGGAGGAGGUUUAUCGAAUUUUCGGCGGACGCCUCAAAA: rule met
AUAAAAGCGCCAGAACUACAGAAAUGUAGUUGACGAGGAGGAGGUUUAACGAAUUUUCGGUGGAUGCCUCCAAA: rule not met
AUAAAAGCGCCAGAACUACAGAAAUGUAGUUGACGAUGAGGAGGUUUAUCGAAUUUUCGGCGGAUGCUUCCAAA: rule not met
AUAAAGGCGCCAGAACUACAGAAAUGUAGUUGACGAGGAGGAGGUUUAUCGAAUUUUCGGCGGAUGCCACCAAA: rule not met
AUAAAAGCGCCAGAACUACAGAAAUGUAGUUGACGAGGAGGAGGUUCAGCGAAUUUUCGGCGGAUGCCUCCAAA: rule met

Would you say `AUAAAAGCGCCAGUACUACAGAAAUGUAGUUGACGAGGAGGAGGUUUAUCGAAUUUGCGGCGGAUGCCUCCAAA` shows kcat at minimum 0.0001 s⁻¹?
rule not met

Would you say `AUAAAAGCGCCAGAACUACAGAAAUGUAGUUGCCGAGGAGGAGGUUUAUCGAAUUUUCGGCGGAUGCCACCAAA` shows kcat at minimum 0.0001 s⁻¹?
rule not met

Reference source for all entries: the supplement of paper PMC7125110
